Study Target: T1, human G-protein-coupled receptor family C group 5 member D (GPRC5D) (human, UniProt Q9NZD1 1-345)
T1 construct: whole, on cells; also called human GPRC5D protein
T1 sequence (Q9NZD1 whole entry): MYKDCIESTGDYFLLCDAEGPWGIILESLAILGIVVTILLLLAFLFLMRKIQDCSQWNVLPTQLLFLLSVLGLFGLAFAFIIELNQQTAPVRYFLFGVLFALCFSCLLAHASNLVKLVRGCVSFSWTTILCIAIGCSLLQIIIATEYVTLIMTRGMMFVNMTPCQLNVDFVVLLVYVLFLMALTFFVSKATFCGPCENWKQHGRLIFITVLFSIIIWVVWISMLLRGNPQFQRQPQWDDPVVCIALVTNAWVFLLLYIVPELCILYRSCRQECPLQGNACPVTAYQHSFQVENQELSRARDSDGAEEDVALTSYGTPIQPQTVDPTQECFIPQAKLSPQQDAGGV
Test Description: FACS, CHO-K1/GPRC5D
Test Readout: Bottom
# print the numeric value only

[Q] Fill in: Bottom of 6-H4L3 (antibody, V domains shown, humanized 6G10D9, VH v4 x VL v3) VH: QVQLVQSGAEVAKPGASVKMSCKASGYTFTTYTMHWVKQAPGQGLEWLGYINPSSGYTNYNQKFKDRVTLTADTSTSTVYMELSSLRSEDTAVYYCASLRSRGYFDYWGQGTLLTVSS VL: DIQMTQSPSFLSTSVGDRVTITCKASQNVGTAVVWYQQKPGKSPKLLIYSASNRYTGVPSRFSGSGSGTEFTLTISSMQPEDFATFFCQQYSSYPYTFGQGTKLEIK is ___
[A] 2340

[Q] Another: 6-H4L2 (antibody, V domains shown, humanized 6G10D9, VH v4 x VL v2) VH: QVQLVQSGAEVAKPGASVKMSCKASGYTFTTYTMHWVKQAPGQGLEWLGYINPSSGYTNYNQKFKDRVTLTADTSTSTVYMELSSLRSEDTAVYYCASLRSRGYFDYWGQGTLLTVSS VL: DIQLTQSPSFLSTSVGDRVTITCKASQNVGTAVVWYQQKPGKSPKLLIYSASNRYTGVPSRFSGSGSGTEFTLTISSLQPEDFATFYCQQYSSYPYTFGQGTKLEIK
[A] 9.56

[Q] Record: 6G10D9-XI (antibody, V domains shown, also called 6G10D9 (chimeric); 6G1009-X1) VH: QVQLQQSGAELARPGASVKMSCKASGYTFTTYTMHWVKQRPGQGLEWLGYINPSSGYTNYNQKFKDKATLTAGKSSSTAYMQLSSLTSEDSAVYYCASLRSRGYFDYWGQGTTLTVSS VL: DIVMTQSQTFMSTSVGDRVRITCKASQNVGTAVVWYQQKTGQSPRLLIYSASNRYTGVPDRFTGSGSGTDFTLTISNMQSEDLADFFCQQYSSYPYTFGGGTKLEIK
[A] 6860

[Q] 6-H3L3 (antibody, V domains shown, humanized 6G10D9, VH v3 x VL v3) VH: QVQLVQSGAEVAKPGASVKVSCKASGYTFTTYTMHWVKQAPGQGLEWLGYINPSSGYTNYNQKFKDRVTMTADTSTSTVYMELSSLRSEDTAVYYCASLRSRGYFDYWGQGTLVTVSS VL: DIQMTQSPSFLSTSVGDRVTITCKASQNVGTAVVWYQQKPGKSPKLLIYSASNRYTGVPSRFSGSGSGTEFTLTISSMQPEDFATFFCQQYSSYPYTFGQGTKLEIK , same question.
[A] 3990

[Q] What do you get for 6-H3L1 (antibody, V domains shown, humanized 6G10D9, VH v3 x VL v1) VH: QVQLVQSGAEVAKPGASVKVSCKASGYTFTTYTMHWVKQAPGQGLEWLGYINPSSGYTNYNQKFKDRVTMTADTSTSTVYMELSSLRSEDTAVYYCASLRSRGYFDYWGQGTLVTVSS VL: DIQLTQSPSFLSASVGDRVTITCKASQNVGTAVVWYQQKPGKAPKLLIYSASNRYTGVPSRFSGSGSGTEFTLTISSLQPEDFATYYCQQYSSYPYTFGQGTKLEIK ?
[A] -205

[Q] Also 6-H3L2 (antibody, V domains shown, humanized 6G10D9, VH v3 x VL v2) VH: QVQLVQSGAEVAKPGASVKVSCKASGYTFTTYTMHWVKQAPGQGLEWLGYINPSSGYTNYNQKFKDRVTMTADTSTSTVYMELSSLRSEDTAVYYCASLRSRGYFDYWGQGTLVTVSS VL: DIQLTQSPSFLSTSVGDRVTITCKASQNVGTAVVWYQQKPGKSPKLLIYSASNRYTGVPSRFSGSGSGTEFTLTISSLQPEDFATFYCQQYSSYPYTFGQGTKLEIK ?
[A] 68.9

[Q] Could you do the same for 6-H4L1 (antibody, V domains shown, humanized 6G10D9, VH v4 x VL v1) VH: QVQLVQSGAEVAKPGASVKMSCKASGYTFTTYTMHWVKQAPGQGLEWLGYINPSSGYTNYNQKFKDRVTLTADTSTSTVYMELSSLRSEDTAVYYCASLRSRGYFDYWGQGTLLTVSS VL: DIQLTQSPSFLSASVGDRVTITCKASQNVGTAVVWYQQKPGKAPKLLIYSASNRYTGVPSRFSGSGSGTEFTLTISSLQPEDFATYYCQQYSSYPYTFGQGTKLEIK , please?
[A] 61.5

[Q] Same question, 6-H1L1 (antibody, V domains shown, humanized 6G10D9, VH v1 x VL v1) VH: QVQLVQSGAEVKKPGASVKVSCKASGYTFTTYTMHWVRQAPGQGLEWMGYINPSSGYTNYNQKFKDRVTMTRDTSTSTVYMELSSLRSEDTAVYYCSRLRSRGYFDYWGQGTLVTVSS VL: DIQLTQSPSFLSASVGDRVTITCKASQNVGTAVVWYQQKPGKAPKLLIYSASNRYTGVPSRFSGSGSGTEFTLTISSLQPEDFATYYCQQYSSYPYTFGQGTKLEIK this time
[A] 193
